Target: HLA-A*24 (human)
Test: UV peptide-exchange ELISA, yield grade
Give measured peptide exchange yield for each item. Keep answers brief.

See these solved cases before continuing.
{"columns": ["binder", "parameter_measured", "obs_value"],
 "data": [
  ["RFHPTPLLL [… (SEQ ID NO: 193)]", "peptide exchange yield", "> 75%"],
  ["TYLRDQHFL [… (SEQ ID NO: 187)]", "peptide exchange yield", "> 75%"]
]}

Record peptide exchange yield for all entries; do not skip any.
1. RYAEEVGIF [… (SEQ ID NO: 199)]
2. KFVDSTFYL [… (SEQ ID NO: 282)]
3. AYVVFVSTL [… (SEQ ID NO: 207)]
4. LYHDIFSRL [… (SEQ ID NO: 271)]
5. HYPPVQVLF [… (SEQ ID NO: 285)]

50 to 75%
> 75%
20 to 49%
> 75%
50 to 75%

Return value of peptide exchange yield for input VYPWLGALL [… (SEQ ID NO: 177)] , no commentary.
> 75%

meta.source: patent US20170165339A1
